# experimentalDetails: CYP450 inhibition in human liver microsomes
# studyConditions: pH 7.4, IC50, human liver microsomes, testosterone substrate (50 μM), 0.03 to 30 μM, 5 min at 37°C, pH 7.4, LC-MS/MS, duplicate
pIC50: −log10 of the molar value. Starred links: 1 amine or outer side, 2 acyl side, 3 side chain; linkers in the order of their positions; H or OH if unused. Positions of bridges follow the written chain, without caps; N, C: chain ends. Non-standard residues stand in square brackets, D forms with d. Residues, ends and D or L forms follow the SMILES beside them. *: point of attachment. Orn(4R-OH,5R-OCH2CH2NMe3+) = C[N+](C)(C)CCO[C@@H](N[*:3])[C@H](O)C[C@H](N[*:1])C(=O)[*:2]; pTerphenylCO(4''-OnC5H11) = CCCCCOc1ccc(-c2ccc(-c3ccc(C(=O)*)cc3)cc2)cc1; hTyr(3S-OH,4S-OH) = N[C@H](C(=O)O)[C@H](O)[C@@H](O)c1ccc(O)cc1; Pro(3S-OH,4S-Me) = C[C@H]1CN[C@H](C(=O)O)[C@H]1O; Hyp = O=C(O)[C@@H]1C[C@@H](O)CN1
measurementLabel: pIC50

compound: CCCCCOc1ccc(-c2ccc(-c3ccc(C(=O)N[C@H]4C[C@@H](O)[C@@H](OCC[N+](C)(C)C)NC(=O)[C@@H]5[C@@H](O)[C@@H](C)CN5C(=O)[C@H]([C@@H](C)O)NC(=O)[C@H]([C@H](O)[C@@H](O)c5ccc(O)cc5)NC(=O)[C@@H]5C[C@@H](O)CN5C(=O)[C@H]([C@@H](C)O)NC4=O)cc3)cc2)cc1 [CD101] ({pTerphenylCO(4''-OnC5H11)}-[Orn(4R-OH,5R-OCH2CH2NMe3+)]T[Hyp][hTyr(3S-OH,4S-OH)]T[Pro(3S-OH,4S-Me)]; lactam 1-C)
measurementLabel: pIC50
measured: < 4.52

----------
# experimentalDetails: Plasma protein binding, rapid equilibrium dialysis
# Type: in vitro ADME, Sprague-Dawley rat
# studyConditions: rat, pH 7.4, read-out: protein bound (converted)
Starred links: 1 amine or outer side, 2 acyl side, 3 side chain; linkers in the order of their positions; H or OH if unused. Positions of bridges follow the written chain, without caps; N, C: chain ends. Non-standard residues stand in square brackets, D forms with d. Residues, ends and D or L forms follow the SMILES beside them. *: point of attachment. Orn(4R-OH,5R-OCH2CH2NMe3+) = C[N+](C)(C)CCO[C@@H](N[*:3])[C@H](O)C[C@H](N[*:1])C(=O)[*:2]; pTerphenylCO(4''-OnC5H11) = CCCCCOc1ccc(-c2ccc(-c3ccc(C(=O)*)cc3)cc2)cc1; hTyr(3S-OH,4S-OH) = N[C@H](C(=O)O)[C@H](O)[C@@H](O)c1ccc(O)cc1; Pro(3S-OH,4S-Me) = C[C@H]1CN[C@H](C(=O)O)[C@H]1O; Hyp = O=C(O)[C@@H]1C[C@@H](O)CN1

compound: CCCCCOc1ccc(-c2ccc(-c3ccc(C(=O)N[C@H]4C[C@@H](O)[C@@H](OCC[N+](C)(C)C)NC(=O)[C@@H]5[C@@H](O)[C@@H](C)CN5C(=O)[C@H]([C@@H](C)O)NC(=O)[C@H]([C@H](O)[C@@H](O)c5ccc(O)cc5)NC(=O)[C@@H]5C[C@@H](O)CN5C(=O)[C@H]([C@@H](C)O)NC4=O)cc3)cc2)cc1 [CD101] ({pTerphenylCO(4''-OnC5H11)}-[Orn(4R-OH,5R-OCH2CH2NMe3+)]T[Hyp][hTyr(3S-OH,4S-OH)]T[Pro(3S-OH,4S-Me)]; lactam 1-C)
fraction unbound: 0.022

----------
# experimentalDetails: Metabolic stability in liver microsomes
# studyConditions: monkey, microsomes
Starred links: 1 amine or outer side, 2 acyl side, 3 side chain; linkers in the order of their positions; H or OH if unused. Positions of bridges follow the written chain, without caps; N, C: chain ends. Non-standard residues stand in square brackets, D forms with d. Residues, ends and D or L forms follow the SMILES beside them. *: point of attachment. Orn(4R-OH,5R-OCH2CH2NMe3+) = C[N+](C)(C)CCO[C@@H](N[*:3])[C@H](O)C[C@H](N[*:1])C(=O)[*:2]; pTerphenylCO(4''-OnC5H11) = CCCCCOc1ccc(-c2ccc(-c3ccc(C(=O)*)cc3)cc2)cc1; hTyr(3S-OH,4S-OH) = N[C@H](C(=O)O)[C@H](O)[C@@H](O)c1ccc(O)cc1; Pro(3S-OH,4S-Me) = C[C@H]1CN[C@H](C(=O)O)[C@H]1O; Hyp = O=C(O)[C@@H]1C[C@@H](O)CN1

compound: CCCCCOc1ccc(-c2ccc(-c3ccc(C(=O)N[C@H]4C[C@@H](O)[C@@H](OCC[N+](C)(C)C)NC(=O)[C@@H]5[C@@H](O)[C@@H](C)CN5C(=O)[C@H]([C@@H](C)O)NC(=O)[C@H]([C@H](O)[C@@H](O)c5ccc(O)cc5)NC(=O)[C@@H]5C[C@@H](O)CN5C(=O)[C@H]([C@@H](C)O)NC4=O)cc3)cc2)cc1 [CD101] ({pTerphenylCO(4''-OnC5H11)}-[Orn(4R-OH,5R-OCH2CH2NMe3+)]T[Hyp][hTyr(3S-OH,4S-OH)]T[Pro(3S-OH,4S-Me)]; lactam 1-C)
microsomal CLint (µL/min/mg): 2.1
